// data source = PubChem BioAssay (EPA / NIEHS)

# Assay details: TAMU_HCS_1.5hr_SingleDonor1434_Cytotoxicity: Cytotoxicity Assessment using High-content Screening (HCS) Fluorescent Imaging for the Texas A&M University (TAMU) 1.5-hr Human Induced Pluripotent Stem Cell (iPSC)-derived Cardiotoxicity Assay (AID 2284234)
Inconclusive results are not listed. Activity calls are given as the source filed them. Rule for the calls: active = hit-call score of the fitted dose curve at least 0.9, where 1 is the maximum; inconclusive = response in the unintended direction; inactive = score below 0.9.
Labels: TRUE for active, FALSE for inactive

{"Input smiles": "c1ccc2ccccc2c1", "Answer label": "FALSE"}
{"Input smiles": "CC(C)(c1cc(Br)c(O)c(Br)c1)c1cc(Br)c(O)c(Br)c1", "Answer label": "TRUE"}
{"Input smiles": "CCCOC(=O)c1cc(O)c(O)c(O)c1", "Answer label": "FALSE"}
{"Input smiles": "CN(C)c1ccc(C(=C2C=CC(=[N+](C)C)C=C2)c2ccc(N(C)C)cc2)cc1", "Answer label": "TRUE"}
{"Input smiles": "CC/C(=C(/CC)c1ccc(O)cc1)c1ccc(O)cc1", "Answer label": "TRUE"}

----------
# Read-out: Glutathione S-transferase M3 (GSTM3), GSTM3 (gene 2947)
# Assay details: LTEA_HepaRG_GSTM3: Life Technologies and Expression Analysis (LTEA) Assay for Glutathione S-transferase M3 (GSTM3) using HepaRG (AID 2283501)
# Condition set: mRNA level, 48 h; actives raise or lower the signal
Calls of active or inactive are those of the source. The calls were made as follows: active = hit-call score of the fitted dose curve at least 0.9, where 1 is the maximum; inactive = score below 0.9.
Labels: class 1 = active, class 0 = inactive

{"Compound": "CN1C(=O)N(c2ccccc2Br)Cc2cnc(Nc3ccc4c(c3)OCC(CO)O4)nc21 (stereo not drawn)", "Answer label": "class 0"}
{"Compound": "Cc1c2ccccc2c(C)c2c1ccc1ccccc12", "Answer label": "class 0"}
{"Compound": "Cc1occc1C(=O)Nc1ccc(C(=O)N2CCC(F)(F)/C(=C\\C(=O)N3CCC(N4CCCCC4)CC3)c3ccccc32)cc1", "Answer label": "class 1"}
{"Compound": "COc1cccc([C@H](O)C2CCN(CCc3ccc(F)cc3)CC2)c1OC", "Answer label": "class 1"}
{"Compound": "O=C1c2ccccc2C(=O)N1CCc1noc(-c2ccc(CN3CCCCCC3)s2)n1", "Answer label": "class 0"}
{"Compound": "CO[C@H]1/C=C/O[C@@]2(C)Oc3c(C)c(O)c4c(O)c(c(/C=N/N5CCN(C)CC5)c(O)c4c3C2=O)NC(=O)/C(C)=C\\C=C\\[C@H](C)[C@H](O)[C@@H](C)[C@@H](O)[C@@H](C)[C@H](OC(C)=O)[C@@H]1C", "Answer label": "class 0"}
{"Compound": "CN(C[C@@H](CC[N+]12CCC(C3CCCCC3)(CC1)CC2)c1ccc(Cl)c(Cl)c1)C(=O)c1cc(C(F)(F)F)cc(C(F)(F)F)c1", "Answer label": "class 1"}
{"Compound": "CC(C)(C)c1csc(-c2cc3cc(OCc4ccccc4CC(=O)O)ccc3o2)n1", "Answer label": "class 1"}

----------
# Assay details: Tanguay_ZF_120hpf_BRAI_legacy: (Legacy) Oregon State University Tanguay Lab 120 Hour Post-fertilization zebrafish Assay for Brain Malformation (AID 2283641)
Inconclusive results are not listed. Activity calls are given as the source filed them. How the source made its calls: active means hit-call score of the fitted dose curve at least 0.9, where 1 is the maximum; inconclusive means response in the unintended direction; inactive means score below 0.9.
Labels: active, inactive

{"Molecule": "CC[C@H](NC(=O)c1cc(F)ccc1NS(=O)(=O)c1cccc2cccnc12)c1ccccc1", "Answer label": "inactive"}
{"Molecule": "CCN(CC)C(=O)c1cc(S(=O)(=O)Cc2ccccc2)c(N2CCC(c3ccccc3)CC2)cc1N(CC)CCN(C)C", "Answer label": "active"}
{"Molecule": "CC(C)(C)c1cc(/C=C2\\SC(N)=NC2=O)cc(C(C)(C)C)c1O", "Answer label": "inactive"}
{"Molecule": "Cc1occc1C(=O)Nc1ccc(C(=O)N2CCC(F)(F)/C(=C\\C(=O)N3CCC(N4CCCCC4)CC3)c3ccccc32)cc1", "Answer label": "inactive"}
{"Molecule": "CC(O)CC(C)(C)O (stereo not given)", "Answer label": "inactive"}
{"Molecule": "O=C(O)c1ccccc1C(=O)OCc1ccccc1", "Answer label": "inactive"}
{"Molecule": "OC12N=C(c3ccccc3)SC1Cc1cc(Cl)ccc12 (stereo not given)", "Answer label": "inactive"}
{"Molecule": "Cc1cc2c(cc1C(F)(F)F)N(C(=O)Nc1ccc(Oc3cccnc3C)nc1)CC2", "Answer label": "inactive"}
{"Molecule": "CN(C)C(=O)C1(N2CCCCC2)CCN(CC[C@@]2(c3ccc(Cl)c(Cl)c3)CN(C(=O)c3ccccc3)CCO2)CC1", "Answer label": "inactive"}
{"Molecule": "Clc1cc(Cl)c2c(c1)N=C1CCCCCN1C2", "Answer label": "inactive"}
